B1: SPOPL (parent)
chain: YTGRAPNLDKMADNLLAAADKYAL

variants of: B1; assay: protein stability index of a GFP-peptide fusion (GPS, HEK-293T) (PSI 1-6); higher = more stable; conditions: c terminus: a fixed tail appended;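 note: lentivirally expressed fusions sorted by FACS into six bins by GFP to DsRed ratio, PSI derived from sequencing read proportions per bin multiplied by bin number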
protein stability index listing for selected variants.
Please reply with the value in numeric form only.

Sample answers from the record:
[[record]]
residue_string = "YTGRAPNLDKMADNLLAAADKYYL [A23Y]"
attribute_measured = "protein stability index"
recorded_result = 2.02

[[record]]
residue_string = "YTGRAPNLDKMADNYLAAADKYAL [L15Y]"
attribute_measured = "protein stability index"
recorded_result = 1.98

[[record]]
residue_string = "YTGVAPNLDKMADNLLAAADKYAL [R4V]"
attribute_measured = "protein stability index"
recorded_result = 1.88

[[record]]
residue_string = "YTGRAPNLVKMADNLLAAADKYAL [D9V]"
attribute_measured = "protein stability index"
recorded_result = 3.1

[[record]]
residue_string = "YTGRAPNLDKMADNLLAAADKYAI [L24I]"
attribute_measured = "protein stability index"
recorded_result = 2.02

[[record]]
residue_string = "YTGRAPNLDKMADNLLFAADKYAL [A17F]"
attribute_measured = "protein stability index"
recorded_result = 2.04

[[record]]
residue_string = "YTGRAPNLDKMAKNLLAAADKYAL [D13K]"
attribute_measured = "protein stability index"
recorded_result = 1.68

[[record]]
residue_string = "YTGRAPNLDKMDDNLLAAADKYAL [A12D]"
attribute_measured = "protein stability index"
recorded_result = 2.92


Form field: reported protein stability index of YTGRAPNLFKMADNLLAAADKYAL [D9F] 3.79

For the variant shown here, YTGRAPYLDKMADNLLAAADKYAL [N7Y] , give the reported protein stability index. 1.27
